Recorded apparent Kd (screen) by entry
Biological target: T1, TNFR1 (Homo sapiens, UniProt P19438)
T1 chain: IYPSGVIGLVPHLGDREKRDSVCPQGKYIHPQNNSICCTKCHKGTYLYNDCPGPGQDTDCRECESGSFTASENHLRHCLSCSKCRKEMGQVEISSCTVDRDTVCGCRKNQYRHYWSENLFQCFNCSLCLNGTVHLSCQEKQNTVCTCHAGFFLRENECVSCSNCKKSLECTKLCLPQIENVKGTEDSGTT
Assay: yeast display SC50
READOUT KIND: apparent Kd (screen) (pM)

>  <BINDER>
L75A (designed binder) MTLQELLREEALRRAEAEAFRYALELLAEKFPEQKEYLLDLAEEIESQIRSLSGVDVEDVRKFLDKEWAWVKELAAEHPAELAEVEAARAARLAELRAEVEAKVAA

>  <READOUT KIND>
apparent Kd (screen)

>  <MEASURED VALUE>
653

$$$$
>  <BINDER>
A87N (designed binder) MTLQELLREEALRRAEAEAFRYALELLAEKFPEQKEYLLDLAEEIESQIRSLSGVDVEDVRKFLDKEWAWVKELLAEHPAELAEVENARAARLAELRAEVEAKVAA

>  <READOUT KIND>
apparent Kd (screen)

>  <MEASURED VALUE>
593

$$$$
>  <BINDER>
L38F (designed binder) MTLQELLREEALRRAEAEAFRYALELLAEKFPEQKEYFLDLAEEIESQIRSLSGVDVEDVRKFLDKEWAWVKELLAEHPAELAEVEAARAARLAELRAEVEAKVAA

>  <READOUT KIND>
apparent Kd (screen)

>  <MEASURED VALUE>
653

$$$$
>  <BINDER>
Q34D (designed binder) MTLQELLREEALRRAEAEAFRYALELLAEKFPEDKEYLLDLAEEIESQIRSLSGVDVEDVRKFLDKEWAWVKELLAEHPAELAEVEAARAARLAELRAEVEAKVAA

>  <READOUT KIND>
apparent Kd (screen)

>  <MEASURED VALUE>
5310

$$$$
>  <BINDER>
T2K (designed binder) MKLQELLREEALRRAEAEAFRYALELLAEKFPEQKEYLLDLAEEIESQIRSLSGVDVEDVRKFLDKEWAWVKELLAEHPAELAEVEAARAARLAELRAEVEAKVAA

>  <READOUT KIND>
apparent Kd (screen)

>  <MEASURED VALUE>
718

$$$$
>  <BINDER>
L27Q (designed binder) MTLQELLREEALRRAEAEAFRYALELQAEKFPEQKEYLLDLAEEIESQIRSLSGVDVEDVRKFLDKEWAWVKELLAEHPAELAEVEAARAARLAELRAEVEAKVAA

>  <READOUT KIND>
apparent Kd (screen)

>  <MEASURED VALUE>
446

$$$$
>  <BINDER>
L41N (designed binder) MTLQELLREEALRRAEAEAFRYALELLAEKFPEQKEYLLDNAEEIESQIRSLSGVDVEDVRKFLDKEWAWVKELLAEHPAELAEVEAARAARLAELRAEVEAKVAA

>  <READOUT KIND>
apparent Kd (screen)

>  <MEASURED VALUE>
2050

$$$$
>  <BINDER>
A69S (designed binder) MTLQELLREEALRRAEAEAFRYALELLAEKFPEQKEYLLDLAEEIESQIRSLSGVDVEDVRKFLDKEWSWVKELLAEHPAELAEVEAARAARLAELRAEVEAKVAA

>  <READOUT KIND>
apparent Kd (screen)

>  <MEASURED VALUE>
718

$$$$
